Molecular target: WT P450 17A1 (Homo sapiens)
Sequence (P05093 whole entry): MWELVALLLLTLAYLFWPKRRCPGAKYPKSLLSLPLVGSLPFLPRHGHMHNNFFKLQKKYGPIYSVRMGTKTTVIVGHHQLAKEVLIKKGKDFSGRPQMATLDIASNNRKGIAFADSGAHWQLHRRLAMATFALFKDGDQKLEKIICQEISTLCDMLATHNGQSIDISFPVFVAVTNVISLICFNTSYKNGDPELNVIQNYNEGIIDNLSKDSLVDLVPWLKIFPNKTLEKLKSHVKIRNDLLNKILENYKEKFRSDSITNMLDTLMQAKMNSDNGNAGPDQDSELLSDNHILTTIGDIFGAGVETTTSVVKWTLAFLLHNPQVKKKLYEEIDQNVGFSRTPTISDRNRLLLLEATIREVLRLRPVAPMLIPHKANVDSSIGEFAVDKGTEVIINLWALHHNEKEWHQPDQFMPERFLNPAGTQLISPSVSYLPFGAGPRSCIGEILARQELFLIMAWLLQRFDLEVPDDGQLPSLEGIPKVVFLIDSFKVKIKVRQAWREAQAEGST
Assay: Substrate-binding spectral titration (type I, ΔA388-A423)
Settings: Kd of P450 17A1·substrate complex, WT; P450 1.0 µM; quadratic fit
Experimental: The purified enzymes were diluted in 100 mM potassium phosphate buffer (pH 7.4) and divided in two 1.0-ml glass cuvettes. Spectra (350–500 nm) were recorded using an OLIS-DW2 spectrophotometer (On-Line Instrument Systems) with subsequent additions of the substrate. Differences in the absorbance between the wavelength maximum and minimum were plotted versus the substrate concentration ([44]). […]
assay_metric: Kd (µM)
A number alone suffices; assume µM.

What reported Kd corresponds to CC(=O)C1CCC2C3CC=C4C[C@@H](O)CC[C@]4(C)C3CC[C@]12C (stereo partly shown) on WT P450 17A1 (Homo sapiens)? 0.14

###

Biological target: WT P450 17A1 (Homo sapiens)
Test: Substrate-binding spectral titration (type I, ΔA388-A423)
Procedure: The purified enzymes were diluted in 100 mM potassium phosphate buffer (pH 7.4) and divided in two 1.0-ml glass cuvettes. Spectra (350–500 nm) were recorded using an OLIS-DW2 spectrophotometer (On-Line Instrument Systems) with subsequent additions of the substrate. Differences in the absorbance between the wavelength maximum and minimum were plotted versus the substrate concentration ([44]). […]
assay_metric: Kd
Please answer using the number first and the unit second.

What reported Kd corresponds to CC(=O)[C@@]1(O)CCC2C3CC=C4C[C@@H](O)CC[C@]4(C)C3CC[C@@]21C (stereo partly shown) on WT P450 17A1 (Homo sapiens)? 110 nM

###

Molecular target: P450 17A1 R347H variant (Homo sapiens, UniProt P05093, R347H)
Sequence (P05093 whole entry R347H): as the sequence (P05093 whole entry) above, with R347H counted along it
Experiment: Substrate-binding spectral titration (type I, ΔA388-A423)
assay_metric: pKd
# pKd: negative log10 of molar concentration; output just the value

Tell me the measured pKd of CC(=O)C1CCC2C3CC=C4C[C@@H](O)CC[C@]4(C)C3CC[C@]12C (stereo partly drawn) [Pregnenolone] , please. 6.92

Tell me the measured pKd of CC(=O)[C@H]1CC[C@H]2[C@@H]3CCC4=CC(=O)CC[C@]4(C)[C@H]3CC[C@]12C [Progesterone] , please. 6.64

Tell me the measured pKd of CC(=O)[C@@]1(O)CCC2C3CC=C4C[C@@H](O)CC[C@]4(C)C3CC[C@@]21C (stereo partly drawn) [17α-OH pregnenolone] , please. 6.66
